Target: T1, recombinant purified human RGM A (R&D Systems Cat# 2459-RM) (human) (UniProt Q96B86)
T1 sequence: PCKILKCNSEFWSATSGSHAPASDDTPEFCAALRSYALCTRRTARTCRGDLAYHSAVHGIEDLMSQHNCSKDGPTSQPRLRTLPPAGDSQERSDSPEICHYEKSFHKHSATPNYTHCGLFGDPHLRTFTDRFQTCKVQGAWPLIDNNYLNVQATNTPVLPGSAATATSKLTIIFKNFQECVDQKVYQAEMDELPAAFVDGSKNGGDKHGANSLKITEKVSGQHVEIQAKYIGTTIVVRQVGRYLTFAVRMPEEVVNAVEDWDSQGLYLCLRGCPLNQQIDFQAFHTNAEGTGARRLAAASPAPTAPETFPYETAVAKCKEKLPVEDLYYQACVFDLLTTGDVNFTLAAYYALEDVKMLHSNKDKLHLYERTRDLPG
Assay: competition ELISA on coated hRGMA; competitor biotinylated chimeric 5F9
RESULT TYPE: IC50 (µg/mL)
Your answer should be a plain number; it is taken to be in µg/mL.

Solved entries (count: 3):
>>> assay_result("h5F9.25 (antibody, human IgG1, V domains shown) VH: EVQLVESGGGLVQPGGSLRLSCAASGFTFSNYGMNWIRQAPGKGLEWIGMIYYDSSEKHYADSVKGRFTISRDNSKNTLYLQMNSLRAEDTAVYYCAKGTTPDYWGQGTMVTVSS VL: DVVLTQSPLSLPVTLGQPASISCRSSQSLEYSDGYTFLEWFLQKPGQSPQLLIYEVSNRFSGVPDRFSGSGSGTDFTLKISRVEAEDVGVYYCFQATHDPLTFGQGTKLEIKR")
0.66
>>> assay_result("h5F9.24 (antibody, human IgG1, V domains shown) VH: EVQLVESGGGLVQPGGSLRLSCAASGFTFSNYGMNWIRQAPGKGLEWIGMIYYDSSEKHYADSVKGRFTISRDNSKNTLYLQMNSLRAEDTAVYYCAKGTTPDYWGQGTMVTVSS VL: DVVLTQSPLSLPVTLGQPASISCRSSQSLEYSDGYTFLEWFQQRPGQSPRRLIYEVSNRFSGVPDRFSGSGSGTDFTLKISRVEAEDVGVYYCFQATHDPLTFGQGTKLEIKR")
1.32
>>> assay_result("h5F9.23 (antibody, human IgG1, V domains shown) VH: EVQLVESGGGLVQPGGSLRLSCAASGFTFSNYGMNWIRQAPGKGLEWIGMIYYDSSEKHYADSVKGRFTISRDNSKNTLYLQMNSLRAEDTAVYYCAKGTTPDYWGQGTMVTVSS VL: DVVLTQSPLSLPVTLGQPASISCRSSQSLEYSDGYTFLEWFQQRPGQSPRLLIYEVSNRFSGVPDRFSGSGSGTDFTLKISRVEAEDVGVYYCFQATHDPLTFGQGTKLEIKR")
0.55

Please find the next binder below.
Inquiry: Provide IC50 value for the following binder: h5F9.21 (antibody, human IgG1, V domains shown) VH: EVQLVESGGGVVQPGRSLRLSCAASGFTFSNYGMNWIRQAPGKGLEWIGMIYYDSSEKHYADSVKGRFTISRDNSKNTLYLQMNSLRAEDTAVYYCAKGTTPDYWGQGTMVTVSS VL: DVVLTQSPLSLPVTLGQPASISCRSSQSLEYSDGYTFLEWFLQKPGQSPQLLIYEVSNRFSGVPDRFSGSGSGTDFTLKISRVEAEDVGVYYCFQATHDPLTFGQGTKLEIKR
Reply text: 0.6
